Values were extracted from PubChem BioAssay (NCI).

# Tested on: EKVX NSCLC
# test: NCI tumour cell line growth inhibition, 48 h; in the data active means GI50 below about 0.43 µM; inactive means the rest
Outcome codes: label 1 (active), label 0 (inactive)

compound: CCN1C(=O)N(CC)C2Nn3c(s/c(=C4\C(=O)N(C)c5ccccc54)c3=O)=NC21 (centres undefined)
qualitative_label: label 0

compound: C/C(=N\NC(=S)N1CC2CCC(CC2)C1)c1ccccn1
qualitative_label: label 1

compound: CCOc1ccccc1NC(=O)C(C#N)C1=C(Cl)C(=O)c2ccccc2C1=O (centres undefined)
qualitative_label: label 0

compound: O=C(OCc1ccc2c(Cl)cc(Cl)c(O)c2n1)N1CCN(C(=O)c2cc3cc(F)ccc3[nH]2)CC1
qualitative_label: label 0

compound: Clc1ccc(N=CNc2ccc(-c3nc4ccccc4o3)cc2)cc1
qualitative_label: label 1

compound: Cn1c(=O)c2c(ncn2CC(=O)Nc2ccc(-c3ccccc3)nn2)n(C)c1=O
qualitative_label: label 0

compound: CO/N=C(/C)c1cccc(Nc2cc(-c3ccccc3)nc3ccc(OC)cc23)c1
qualitative_label: label 0

compound: COc1ccc2c3c(Nc4ccc(/C(C)=N/O)cc4)[nH]c4ccccc4c-3c(N=O)c2c1
qualitative_label: label 0

compound: O=C(Nc1ccc(Cl)c(Cl)c1)Nc1ccccc1O
qualitative_label: label 0

compound: O=c1[nH]c(=O)n([C@H]2CCCO2)cc1F
qualitative_label: label 0

compound: CCCCCc1ccc(S(=O)(=O)Nc2cc(-c3csc(NC(C)=O)n3)ccc2N2CCN(C)CC2)cc1
qualitative_label: label 0

compound: O=C1CSC(c2ccc(-c3nc4ccccc4s3)cc2)=N1
qualitative_label: label 0

compound: O=c1oc2ccc(Br)cc2c(=O)n1-c1ccc(F)cc1F
qualitative_label: label 0

compound: CC/C=C/C/C=C/C/C=C/C/C=C/C/C=C/C/C=C/CCC(=O)Nc1ccn([C@@H]2O[C@H](CO)[C@@H](O)C2(F)F)c(=O)n1
qualitative_label: label 0
